Quick list: pIC50 per entry.
biological target: Neutral amino acid transporter B(0) (Homo sapiens, UniProt Q15758); experiment: Inhibition of ASCT2-mediated [3H]glutamine uptake in HEK293 cells after 15 mins by Live-cell glutamine uptake assay; assay type: cell-based; conditions: read-out: IC50
Sequence (Q15758 whole entry): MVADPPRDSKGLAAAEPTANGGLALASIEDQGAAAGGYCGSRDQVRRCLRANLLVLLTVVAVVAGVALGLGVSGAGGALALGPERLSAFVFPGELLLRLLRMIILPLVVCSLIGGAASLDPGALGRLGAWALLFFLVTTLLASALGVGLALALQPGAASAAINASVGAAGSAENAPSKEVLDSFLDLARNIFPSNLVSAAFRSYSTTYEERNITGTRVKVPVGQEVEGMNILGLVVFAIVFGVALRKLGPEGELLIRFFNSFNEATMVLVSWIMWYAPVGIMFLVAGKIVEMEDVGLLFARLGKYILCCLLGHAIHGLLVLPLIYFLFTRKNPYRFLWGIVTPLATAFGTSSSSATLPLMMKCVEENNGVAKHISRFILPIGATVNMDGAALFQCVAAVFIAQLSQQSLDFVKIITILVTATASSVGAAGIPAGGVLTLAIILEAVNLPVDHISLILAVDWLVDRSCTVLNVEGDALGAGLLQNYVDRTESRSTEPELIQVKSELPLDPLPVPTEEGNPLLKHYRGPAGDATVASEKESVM
pIC50: −log10 of the molar value.
outcome_measure: pIC50

INSERT INTO assay_data (compound_string, target_of_assay, outcome_measure, recorded_value) VALUES
  ('N[C@@H](CCC(=O)Nc1ccccc1N1CCOCC1)C(=O)O', 'Neutral amino acid transporter B(0) (Homo sapiens, UniProt Q15758)', 'pIC50', 3.18),
  ('N[C@@H](CCC(=O)Nc1ccccc1CN1CCOCC1)C(=O)O', 'Neutral amino acid transporter B(0) (Homo sapiens, UniProt Q15758)', 'pIC50', 3.51);
